The measurements presented in this section are drawn from patent US20250368745A1.

Biological target: T1, human IL-18BP (interleukin-18 binding protein, isoform A) (human, UniProt O95998 31-194)
T1 construct: cell assays used Sino Biological 10357-H08H; PBMC assay 1 relies on endogenous IL-18BP; UniProt number is printed as 095998; also called hIL-18BP
T1 sequence: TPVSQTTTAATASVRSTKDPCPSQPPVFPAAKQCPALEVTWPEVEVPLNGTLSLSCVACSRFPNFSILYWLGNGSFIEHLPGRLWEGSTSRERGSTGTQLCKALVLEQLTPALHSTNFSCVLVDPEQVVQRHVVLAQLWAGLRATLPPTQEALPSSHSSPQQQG
Assay: BLI single-concentration screen, apparent KD
pKd: −log10 of the molar value.
recorded.endpoint: pKd

1. SA301a heavy chain variant N33bE, C34S (antibody, human IgG1, V domains shown, library variant, human IgG1/kappa, from supernatant) VH: QVQLQESGPGLVKPSQTLSLTCTVSGYSITSDYESHWIRQPPGKGLEWIGYIHYSGSTNYNPSLKSRVTISRDTSKNQFSLKLSSVTAADTAVYYCARNYGSIYVNYFDYWGQGTLVTVSS VL: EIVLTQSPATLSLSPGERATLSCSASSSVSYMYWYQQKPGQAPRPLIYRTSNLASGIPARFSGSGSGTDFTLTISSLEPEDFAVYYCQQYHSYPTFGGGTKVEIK	10.00
2. heavy chain library variant C34N (antibody, V domains shown, position 34 variant, human IgG1/kappa, from supernatant; C is the SA44a residue) VH: QVQLQESGPGLVKPSQTLSLTCTVSGYSITSDYNNHWIRQPPGKGLEWIGYIHYSGSTNYNPSLKSRVTISRDTSKNQFSLKLSSVTAADTAVYYCARNYGSIYVNYFDYWGQGTLVTVSS VL: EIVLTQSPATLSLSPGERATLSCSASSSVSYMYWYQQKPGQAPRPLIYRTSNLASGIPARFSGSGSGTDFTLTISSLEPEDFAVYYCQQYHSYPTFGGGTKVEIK	9.00
3. SA301a heavy chain variant N33bT, C34S (antibody, human IgG1, V domains shown, library variant, human IgG1/kappa, from supernatant) VH: QVQLQESGPGLVKPSQTLSLTCTVSGYSITSDYTSHWIRQPPGKGLEWIGYIHYSGSTNYNPSLKSRVTISRDTSKNQFSLKLSSVTAADTAVYYCARNYGSIYVNYFDYWGQGTLVTVSS VL: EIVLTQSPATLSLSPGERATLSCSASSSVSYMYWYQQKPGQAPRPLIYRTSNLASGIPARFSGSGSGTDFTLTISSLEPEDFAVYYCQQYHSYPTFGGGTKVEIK	9.52
4. heavy chain library variant C34D (antibody, V domains shown) VH: QVQLQESGPGLVKPSQTLSLTCTVSGYSITSDYNDHWIRQPPGKGLEWIGYIHYSGSTNYNPSLKSRVTISRDTSKNQFSLKLSSVTAADTAVYYCARNYGSIYVNYFDYWGQGTLVTVSS VL: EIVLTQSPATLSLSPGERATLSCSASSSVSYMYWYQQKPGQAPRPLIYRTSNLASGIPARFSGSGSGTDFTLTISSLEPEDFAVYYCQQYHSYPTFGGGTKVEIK	9.30
5. SA302a heavy chain variant N33bI, C34A (antibody, human IgG1, V domains shown, library variant, human IgG1/kappa, from supernatant) VH: QVQLQESGPGLVKPSQTLSLTCTVSGYSITSDYIAHWIRQPPGKGLEWIGYIHYSGSTNYNPSLKSRVTISRDTSKNQFSLKLSSVTAADTAVYYCARNYGSIYVNYFDYWGQGTLVTVSS VL: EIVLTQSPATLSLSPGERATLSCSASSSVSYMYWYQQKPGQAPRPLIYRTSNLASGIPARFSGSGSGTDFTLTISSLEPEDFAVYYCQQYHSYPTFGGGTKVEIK	9.22
6. SA301a heavy chain variant N33bK, C34S (antibody, human IgG1, V domains shown, library variant, human IgG1/kappa, from supernatant) VH: QVQLQESGPGLVKPSQTLSLTCTVSGYSITSDYKSHWIRQPPGKGLEWIGYIHYSGSTNYNPSLKSRVTISRDTSKNQFSLKLSSVTAADTAVYYCARNYGSIYVNYFDYWGQGTLVTVSS VL: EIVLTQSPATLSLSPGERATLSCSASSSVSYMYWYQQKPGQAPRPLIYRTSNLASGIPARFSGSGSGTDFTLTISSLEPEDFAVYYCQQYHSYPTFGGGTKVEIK	9.40
7. SA301a heavy chain variant N33bY, C34S (antibody, human IgG1, V domains shown, library variant, human IgG1/kappa, from supernatant) VH: QVQLQESGPGLVKPSQTLSLTCTVSGYSITSDYYSHWIRQPPGKGLEWIGYIHYSGSTNYNPSLKSRVTISRDTSKNQFSLKLSSVTAADTAVYYCARNYGSIYVNYFDYWGQGTLVTVSS VL: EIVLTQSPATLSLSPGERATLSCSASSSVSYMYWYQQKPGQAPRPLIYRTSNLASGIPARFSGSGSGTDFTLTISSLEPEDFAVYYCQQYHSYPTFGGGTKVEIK	8.92
8. SA301a heavy chain variant N33bS, C34S (antibody, human IgG1, V domains shown, library variant, human IgG1/kappa, from supernatant) VH: QVQLQESGPGLVKPSQTLSLTCTVSGYSITSDYSSHWIRQPPGKGLEWIGYIHYSGSTNYNPSLKSRVTISRDTSKNQFSLKLSSVTAADTAVYYCARNYGSIYVNYFDYWGQGTLVTVSS VL: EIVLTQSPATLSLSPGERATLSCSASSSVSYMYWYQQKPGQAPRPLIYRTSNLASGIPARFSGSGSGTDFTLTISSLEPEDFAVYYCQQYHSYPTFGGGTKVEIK	8.85
9. heavy chain library variant C34Q (antibody, V domains shown) VH: QVQLQESGPGLVKPSQTLSLTCTVSGYSITSDYNQHWIRQPPGKGLEWIGYIHYSGSTNYNPSLKSRVTISRDTSKNQFSLKLSSVTAADTAVYYCARNYGSIYVNYFDYWGQGTLVTVSS VL: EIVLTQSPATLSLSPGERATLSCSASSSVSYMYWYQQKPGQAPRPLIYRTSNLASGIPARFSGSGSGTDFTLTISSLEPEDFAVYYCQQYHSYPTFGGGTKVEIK	9.22
10. SA302a heavy chain variant N33bH, C34A (antibody, human IgG1, V domains shown, library variant, human IgG1/kappa, from supernatant) VH: QVQLQESGPGLVKPSQTLSLTCTVSGYSITSDYHAHWIRQPPGKGLEWIGYIHYSGSTNYNPSLKSRVTISRDTSKNQFSLKLSSVTAADTAVYYCARNYGSIYVNYFDYWGQGTLVTVSS VL: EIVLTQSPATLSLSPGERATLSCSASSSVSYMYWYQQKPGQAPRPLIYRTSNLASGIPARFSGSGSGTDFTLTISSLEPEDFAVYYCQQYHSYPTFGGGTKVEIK	9.10
